# experimentSummary: Ames test (mutagenic power)
# Format: cell-based
quantityKind: Ames

These solved cases illustrate the format of a correct answer.
[
  {
    "compound": "Cc1ccc([I+]c2ccc(C)cc2)cc1 [Example 1, ditolyliodonium chloride]",
    "Ames": "cytotoxic"
  },
  {
    "compound": "Cc1ccc([I+]c2ccc(Oc3ccccc3)cc2)cc1",
    "Ames": "cytotoxic"
  },
  {
    "compound": "COc1ccc([I+]c2ccc(OC)cc2)cc1",
    "Ames": "cytotoxic"
  },
  {
    "compound": "CC(C)c1ccc([I+]c2ccc(C(C)C)cc2)cc1",
    "Ames": "negative"
  }
]

Query compound follows.
Input: Data request, read-out Ames, for Cc1ccc([I+]c2ccc(C(C)C)cc2)cc1 [Example 3, cumyltolyliodonium chloride]
Output: negative
